- TARGET OR TEST SYSTEM: DAEFRH-peptide-specific monoclonal antibody (Example 1)
- PROTOCOL TEXT: inhibition ELISA, competitor plate-bound DAEFRH-C-BSA
ASSAY READOUT: IC50

Some binders with recorded IC50:
| BINDER | IC50 |
| --- | --- |
| SSEFRVS [Peptide 4024] | < 0.5 µg/mL |
| DWELRIC [Peptide 3002] | > 0.5 µg/mL |
| GKEFRT [Peptide 4035] | < 0.5 µg/mL |
| AYEFRH [Peptide 4036] | > 0.5 µg/mL |

Next, consider the following binder.
Indicate its recorded IC50; the binder in question is DKELRIC [Peptide 3001]
< 0.5 µg/mL
